Please go through the items and note down their IC50.
- System under test: HIV protease (Human immunodeficiency virus type 1 group M subtype B, UniProt P04585)
- Construct: HIV protease was expressed in E. coli; made in house; host or cells: E. coli
- Protocol details: biochemical
- Experimental context: partially purified HIV protease expressed in E. coli; substrate succinyl-Ser-Leu-Asn-Tyr-Pro-Ile isobutylamide; citrate buffer pH 5.5; 37° C.; read-out: I50 (concentration of test compound required to give 50% inhibition)
Provide only the numeric value, understood in nM.

Data request: Return reported IC50; argument: CC(C)(C)NC(=O)C1Cc2ccccc2CN1C[C@@H](O)[C@H](Cc1ccccc1)NC(=O)[C@H](CC(N)=O)NC(=O)OCc1ccccc1 (mixture of isomers)
Data returned: 85

Data request: Return reported IC50; argument: CC(C)CNC(=O)[C@@H]1CCCN1CC(O)[C@H](Cc1ccccc1)NC(=O)[C@H](CC(N)=O)NC(=O)OCc1ccccc1 (single isomer, unassigned)
Data returned: 80

Data request: Return reported IC50; argument: CC(C)(C)OC(=O)[C@@H]1CCCN1C[C@@H](O)[C@H](Cc1ccccc1)NC(=O)[C@H](CC(N)=O)NC(=O)c1ccc2ccccc2c1
Data returned: 10

Data request: Return reported IC50; argument: CC(C)(C)OC(=O)[C@@H]1CCCN1CC(=O)[C@H](Cc1ccccc1)NC(=O)[C@H](CC(N)=O)NC(=O)OCc1ccccc1
Data returned: 870

Data request: Return reported IC50; argument: CC[C@H](C)[C@H](NC(=O)[C@@H]1CCCN1CC(O)[C@H](Cc1ccccc1)NC(=O)[C@H](CC(N)=O)NC(=O)OCc1ccccc1)C(=O)NCC(C)C (single isomer, unassigned)
Data returned: 130

Data request: Return reported IC50; argument: CC[C@H](C)[C@H](NC(=O)[C@@H]1CCCN1CC(O)[C@H](Cc1ccccc1)NC(=O)[C@H](CC(N)=O)NC(=O)[C@H](CC(C)C)NC(=O)OCc1ccccc1)C(=O)NCC(C)C (mixture of isomers)
Data returned: 750

Data request: Return reported IC50; argument: CC(C)CCNC(=O)[C@@H]1CCCN1CC(O)[C@H](Cc1ccccc1)NC(=O)[C@H](CC(N)=O)NC(=O)OCc1ccccc1 (single isomer, unassigned)
Data returned: 750

###

- System under test: HIV protease (Human immunodeficiency virus type 1 group M subtype B, UniProt P04585)
- Construct: HIV protease was expressed in E. coli; made in house; host or cells: E. coli
- Protocol details: biochemical
- Experimental context: read-out: I50 (concentration of test compound required to give 50% inhibition)
Measured endpoint: pIC50
Please report pIC50 as the negative decimal logarithm of the molar concentration, giving only the number.

Data request: Return reported pIC50; argument: CC(C)(C)OC(=O)[C@@H]1CCCN1C[C@H](O)[C@H](Cc1ccccc1)NC(=O)[C@H](CC(N)=O)NC(=O)OCc1ccccc1 [Compound C]
Data returned: 6.52

Data request: Return reported pIC50; argument: CC(C)(C)OC(=O)[C@@H]1CCCN1C[C@@H](O)[C@H](Cc1ccccc1)NC(=O)[C@H](CC(N)=O)NC(=O)OCc1ccccc1 [Compound B]
Data returned: 6.82

Sourced from patent US5157041A
